- experiment summary: chemical genetic growth profiling, strain panel (AID 1159580);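 note: tested at 20 µM; growth read once vehicle control cultures reached saturation at 30 °C; 1 = growth at the plate median or of vehicle wells; lower values mean less growth of the strain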
- test parameters: S. cerevisiae deletion strains, growth OD, locus YDR069C, strain doa4, hits give low values
In all, about 5,500 compounds went through this assay and about 2,000 (36%) were called active. Not shown: some 18% with an inconclusive outcome. Some of the results follow.
endpoint label: normalized growth

molecule	result
CC(=O)O[C@H]1CC[C@]2(C)C3CC[C@@]4(C)C(CC5O[C@@]6(CCC(C)CO6)[C@@H](C)C54)C3CC[C@@H]2C1 (some centres undefined)	1.01
C[C@]12CCC3C(CC[C@H]4C[C@H](OS(=O)(=O)O)CC[C@]34C)C1CCC2=O (some centres undefined)	1.05
CCOC([O-])=Nc1c[n+](N2CCOCC2)no1	1
COc1cc(-c2coc3cc(O[C@@H]4O[C@H](CO)[C@@H](O)[C@H](O)[C@H]4O)c(OC)c(O)c3c2=O)cc(O)c1OC	0.986
